- Species on record: Homo sapiens
- Method notes: Selectivity index, ratio of IC50 for human recombinant CYP1A1 to IC50 for human recombinant CYP1B1 using 7-ethoxyresorufin as substrate
Overview of recorded Ratio IC50 for various compounds
Simply state the number, no unit and no words.

For orientation, consider the following solved cases.
N#Cc1cccc(-c2csc(C(=O)Nc3ccc(C(F)(F)F)cc3)n2)c1 :: 7.3
COc1ccc(OC)c(NC(=O)c2nc(-c3ccccc3)cs2)c1 :: 18.4
O=C(Nc1ccccc1)c1nc(-c2ccccc2)cs1 :: 22.1

IN: // query Ratio IC50 value for entry O=C(Nc1ccc(OC(F)F)cc1)c1nc(-c2ccc(Cl)cc2)cs1
OUT: 65.1

IN: // query Ratio IC50 value for entry O=C(Nc1cc(Cl)cc(Cl)c1)c1nc(-c2ccccc2)cs1
OUT: 66.2

IN: // query Ratio IC50 value for entry O=C(Nc1cccc(F)c1)c1nc(-c2ccccc2)cs1
OUT: 9

IN: // query Ratio IC50 value for entry O=C(Nc1ccc(I)cc1)c1nc(-c2ccccc2)cs1
OUT: 410

IN: // query Ratio IC50 value for entry Cc1sc(C(=O)Nc2ccc(OC(F)F)cc2)nc1-c1cccc(F)c1
OUT: 61.9

IN: // query Ratio IC50 value for entry COc1cc(NC(=O)c2nc(-c3ccccc3)cs2)cc(OC)c1
OUT: 134

IN: // query Ratio IC50 value for entry Cc1cccc(-c2csc(C(=O)Nc3cc(Cl)cc(Cl)c3)n2)c1
OUT: 53.4

IN: // query Ratio IC50 value for entry O=C(Nc1ccc(C(F)(F)F)cc1)c1nc(-c2ccc(F)cc2)cs1
OUT: 323
